// provenance: PubChem BioAssay (NCI)

- Tested on: 786-0 renal
- assay text: NCI-60 one-dose screen, 48 h
- assay conditions: 10 µM unless noted
The panel holds about 83,000 compounds, 20% with a hit somewhere; the sample as a whole holds those more often. The source made the active and inactive calls. The calls were made as follows: active = growth percent below 10; inactive = the rest.
Please reply with one of these outcomes: active, inactive

For CCn1c2ccccc2c2cc(C(=O)c3ccc(C)c4ccccc34)ccc21 , what call appears in the results of this test?
inactive

Per the assay record, what outcome was assigned to C[C@]12CCc3nc(Nc4ccccc4F)sc3C1=CC[C@@H]1[C@@H]2CC[C@]2(C)C(=O)CC[C@@H]12 ?
inactive

Per the assay record, what outcome was assigned to O=[N+]([O-])c1ccc([Se]C2CCCCC2Cl)c([N+](=O)[O-])c1 (stereo not drawn) ?
inactive

Dear all, I need the recorded test outcome for CC(=O)O[C@H](C[C@H](C(C)C)N(C)C(=O)[C@@H](NC(=O)[C@H]1CCCCN1C)C(C)(C)C)c1nc(C(=O)N[C@@H](Cc2ccccc2)C[C@H](C)C(=O)O)cs1 , thank you.
inactive

Dear colleague, could you share the recorded outcome for Nc1ncnc2n[nH]nc12 when you have a moment?
inactive

State the result this test recorded for Cn1cc(C2=C(c3cn(C4CCN(Cc5ccccn5)CC4)c4ccccc34)C(=O)NC2=O)c2ccccc21 .
inactive

How did this test come out for CCCCNC(c1ccc(Cl)cc1)C(O)c1ccc(Cl)cc1 (stereo not drawn) ?
inactive

Give the logged outcome of this assay for the following compound: COC(=O)[C@@H](C)C[C@H](Cc1ccccc1)NC(=O)c1nc([C@@H](C[C@H](C(C)C)N(C)C(=O)[C@@H](NC(=O)[C@H]2C[C@H](O)CCN2C)C(C)C)OC(C)=O)sc1C(C)C
active

---

- System: UACC-62 melanoma
- assay text: NCI-60 one-dose screen, 48 h
- assay conditions: 10 µM unless noted
The panel holds about 83,000 compounds, 20% with a hit somewhere; the sample as a whole holds those more often. Activity calls are given as the source filed them. How the source made its calls: active means growth percent below 10; inactive means the rest.
Would you mind answering with one of these outcomes? active, inactive

Which outcome was assigned to [Cl][Hg][c]1cc[c]([Hg][Cl])o1 in this test?
inactive

Would you mind telling me which call this test gave CC(=O)O[C@H]1CC[C@H]2[C@@H]3CC=C4c5nc(-c6ccccc6)sc5CC[C@]4(C)[C@H]3CC[C@]12C ?
inactive

GET /call?item= O=C(CCCCCCC(=O)Nc1ccc(N(CCCl)CCCl)cc1)NO returns the recorded outcome of this test.
inactive

Name the outcome recorded for NC1CC2CCCCC2CC1(O)c1ccccc1 (centres undefined) in the assay.
inactive

Returns: the outcome recorded for COC(=O)[C@@H](C)C[C@H](Cc1ccc2ccccc2c1)NC(=O)c1csc([C@@H](C[C@H](C(C)C)N(C)C(=O)[C@@H](NC(=O)[C@H]2CCCCN2C)C(C)C)OC(C)=O)n1 in this assay.
inactive

Could you check what this test reported for CC(=O)[O][Hg][c]1c(N)c(C)cc(C)c1F ?
inactive

Could you kindly confirm the outcome this assay logged for N/C(=N/N=C/c1ccncc1)N[N+](=O)[O-] ?
inactive

Record lookup: outcome of this test for Oc1ccc2c3c1OC1[C@@H](O)CC[C@@]4(O)[C@@H](C2)N(CC2CCC2)CC[C@]314 (some centres undefined) ?
inactive

Recorded test outcome, item CN(C)C(=O)Oc1ccccc1
inactive

Test call, this compound: COC(=O)[C@@H](C)C[C@H](Cc1ccccc1)NC(=O)c1nc([C@@H](C[C@H](C(C)C)N(C)C(=O)[C@@H](NC(=O)[C@H]2CCCCN2C)C(C)C)OC(C)=O)sc1C
inactive

Status in this test for O=C(CC1(O)C(=O)Nc2ccccc21)c1ccc(C(=O)NCC2CCC3(CC2)OOC2(CCCCC2)OO3)cc1 (centres undefined) ?
inactive

Recorded call for Cc1cc(N(CCCl)CCCl)ccc1C=Nc1cccnc1 ?
inactive

Tell me the assay call for O=[As](O)(O)c1ccccc1[As](=O)(O)O please.
inactive

Dear colleague, could you share the recorded outcome for c1cnc2[nH]cc(-c3csc(-c4cn(CCCCN5CCOCC5)c5ccccc45)n3)c2c1 when you have a moment?
inactive

State the result this test recorded for COc1cccc(/C=C/[N+](=O)[O-])c1 .
inactive

Test call for this compound, please: COc1ccc(S(=O)(=O)N(Cc2ccc3c(c2)C=CC(C)(C)O3)c2ccccc2)cc1OC
inactive

Identify the outcome logged in this assay for the compound shown: CCOP(=O)(NC[C@H]1O[C@](O)(CO)[C@@H](O)[C@@H]1O)OCC
inactive

// outcome(item) with item = CCCCN1CCCC[C@@H]1C(=O)N[C@H](C(=O)N(C)[C@H](C[C@@H](OC(C)=O)c1nc(C(=O)NC2CCC(C(=O)OC)CC2)cs1)C(C)C)C(C)C (some centres undefined)
inactive

Check the results log: what was the call for CC1CN1CCCCN1CC1C (centres undefined) ?
inactive

Answer briefly: the call reported for CCN(CCO)C(Cc1ccccc1)c1ccccc1 (centres undefined) in this assay.
inactive

Kindly provide the recorded test outcome for the following compound: Cc1ccc(Nc2nc3c(s2)C2=CC[C@@H]4[C@H](CC[C@]5(C)C(=O)CC[C@@H]45)[C@@]2(C)CC3)cc1
inactive

What did the test return for CC1=C2[C@@H](CC1)[C@]1(C)O[C@@](C(C)C)(C[C@H]1O)[C@H]2OC(=O)C1CC1c1ccccc1 (some centres undefined) ?
inactive

Check the results log: what was the call for CC(CO)NC1CCCCC1 (centres undefined) ?
inactive

Could you check what this test reported for CN(C)CCCOc1ccc2c(c1)c(C(=O)C(=O)NCCO)cn2Cc1ccccc1 ?
inactive

Assay outcome for O=C1C2CC=CCC2C(=O)N1SC(Cl)(Cl)Cl (centres undefined) : what was it?
inactive

State the result this test recorded for CC(=O)Oc1ccccc1C(=O)NCCC[Se]C#N .
inactive

Identify the outcome logged in this assay for the compound shown: NC(=O)c1c(Br)n(C2OC(CO)C(O)C2O)c2ncnc(N)c12 (centres undefined)
active

Dear all, I need the recorded test outcome for ClCCN(CCCl)c1ccc(/C=N\N=C\c2ccc(N(CCCl)CCCl)cc2)cc1 , thank you.
inactive

Answer briefly: the call reported for CCOC(=O)C(Cc1ccc(N(CCCl)CCCl)cc1)NC(=O)C(CC(C)C)NC(C)=O (centres undefined) in this assay.
inactive

Hey, what did the test say about COc1cc2c(c(OC)c1OC)-c1ccc([O-])c(=O)cc1[C@@H](NC(C)=O)CC2.COc1cc2c(c(OC)c1OC)-c1ccc([O-])c(=O)cc1[C@@H](NC(C)=O)CC2.[Cu+2] ?
inactive

Could you kindly confirm the outcome this assay logged for CCOP(=O)(Nc1ccc2c(c1)/C(=N/NC(N)=S)c1ccccc1-2)OCC ?
inactive

Field: outcome | Entry: CCOC(=O)N1CC1
inactive

Test call, this compound: CC12CC(=O)C3(SC#N)C(CCC4=CC(=O)CCC43C)C1CCC2=O (centres undefined)
inactive

Dear colleague, could you share the recorded outcome for Cc1sc2c(c1C)C(c1ccc(Cl)cc1)=N[C@@H](CC(=O)OC(C)(C)C)c1nnc(C)n1-2 when you have a moment?
inactive

Would you mind telling me which call this test gave COC(=O)[C@@H](C)C[C@H](Cc1ccccc1)NC(=O)c1nc([C@@H](C[C@H](C(C)C)N(C)C(=O)[C@@H](NC(=O)[C@H]2C[C@H](O)CCN2C)C(C)C)OC(C)=O)sc1C(C)C ?
inactive

Kindly provide the recorded test outcome for the following compound: CC[C@H](C)[C@H](NC(=O)[C@H]1CCCCN1C)C(=O)N(C)[C@H](CC(=O)c1nc(C(=O)N[C@@H](Cc2ccccc2)C[C@H](C)C(=O)O)cs1)C(C)C
inactive

Query: recorded result category for CCOC(=O)CCN(C)C1=Nc2ccc(Cl)cc2C(c2ccccc2)=[N+]([O-])C1 in this test
inactive

Can you look up the reported call for CNC(=O)Oc1ccc(C(C)(C)C)cc1OC(=O)NC for me?
inactive

// outcome(item) with item = NC(CCl)CCl
inactive
